- System: BChE (source equine serum) (Equus caballus, UniProt P81908)
- Construct: from tissue; host or cells: equine serum
- Sequence (P81908 whole entry): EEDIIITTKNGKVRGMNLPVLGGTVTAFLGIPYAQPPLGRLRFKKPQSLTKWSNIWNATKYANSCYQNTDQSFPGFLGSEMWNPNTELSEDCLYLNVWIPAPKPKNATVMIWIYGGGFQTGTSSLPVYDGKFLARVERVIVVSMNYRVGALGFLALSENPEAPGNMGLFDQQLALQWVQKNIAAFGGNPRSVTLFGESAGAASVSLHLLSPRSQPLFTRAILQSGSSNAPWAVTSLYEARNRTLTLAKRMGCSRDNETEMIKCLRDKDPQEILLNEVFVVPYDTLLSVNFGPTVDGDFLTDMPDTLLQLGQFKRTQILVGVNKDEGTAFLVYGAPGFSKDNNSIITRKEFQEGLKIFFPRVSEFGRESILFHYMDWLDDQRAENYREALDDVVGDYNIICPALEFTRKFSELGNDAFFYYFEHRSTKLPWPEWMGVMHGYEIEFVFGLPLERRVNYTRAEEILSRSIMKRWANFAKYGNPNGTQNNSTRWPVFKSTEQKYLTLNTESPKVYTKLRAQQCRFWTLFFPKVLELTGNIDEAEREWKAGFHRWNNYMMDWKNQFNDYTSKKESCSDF
- Measurement protocol: biochemical
- Condition details: read-out: % BChE Inhibition
Measured quantity: inhibition at 1000 µg/mL (%)
Give just the number in %; leave the unit off.

Known results for compounds:
COc1ccc(C/N=C(/C)[C@H]2CC[C@H]3[C@@H]4CCC5=CC(=O)CC[C@]5(C)[C@H]4CC[C@]23C)cc1 [AN1]
86.8
COc1ccc(C/N=C(/C)[C@H]2CC[C@H]3[C@@H]4CCC5=CC(=O)CC[C@]5(C)[C@H]4CC[C@]23C)cc1OC [AN3]
87.9
C/C(=N/Cc1ccc(Cl)cc1)[C@H]1CC[C@H]2[C@@H]3CCC4=CC(=O)CC[C@]4(C)[C@H]3CC[C@]12C [AN4]
76.3

State its inhibition at 1000 µg/mL for this compound: C/C(=N/Cc1ccc(C)cc1)[C@H]1CC[C@H]2[C@@H]3CCC4=CC(=O)CC[C@]4(C)[C@H]3CC[C@]12C [AN2]
77.5

State its inhibition at 1000 µg/mL for this compound: C/C(=N/Cc1ccccc1)[C@H]1CC[C@H]2[C@@H]3CCC4=CC(=O)CC[C@]4(C)[C@H]3CC[C@]12C [AN5]
85.5

State its inhibition at 1000 µg/mL for this compound: COc1ccc2c3c1O[C@H]1C[C@@H](O)C=C[C@@]31CCN(C)C2 [Galantamine, reference compound]
89.5
